Assignment: determine reported glycan array binding signal (z-score) for the given binders.
Target: Fuc(b1-3)GlcNAc
Experiment: glycan array binding signal (z-score within array); higher = stronger binding
Settings: glycan notation: IUPAC condensed, linker removed
About 410 targets per protein were measured; listed, in parts, are those with the strongest signals and a random draw of the rest.
// no unit string in output, number only

Notebook: F17dG (Escherichia coli), Q47199 (protein) MTNFYKVFLAVFILVCCNISQAAVSFIGSTENDVGPSPGSYSRTHAMDNLPFVYNTGNNIGYQNANVWRISKGFCVGLDGKVDLPVVGSLDGQSIYGLTEEVGLLIWMGDTNYSRGTAMSGNSWENVFSGWCVGANTASTQGLSVRVTPVILKRNSSARYSVQKTSIGSIRMRPYNGSSAGSVQTTVNFSLNPFTLNDTVTSCRLLTPSAVNVSLAAISAGQLPSSGDEVVAGTTSLKLQCDAGVTVWATLTDATTPSNRSDILTLTGASTATGVGLRIYKNTDSTPLKFGPDSPVKGNENQWQLSTGTETSPSVRLYVKYVNTGEGINPGTVNGISTFTFSYQ , glycan array binding signal (z-score) read as -0.225

Notebook: F17eG (Escherichia coli), Q9RH92 (protein) MTNFYKVFLAVFILVCCNISHAAVSFIGSTENDVGPSQSSYSRTHAMDNLPFVYNTGYNIGYQNANVWRISGGFCVGLDGKVDLPVVGSLDGQSIYGLTEEVGLLIWMGDTNYSRGTAMSGNSWENVFSGWCVGNYVSTQGLSVHVRPVILKRNSSAQYSVQKTSIGSIRMRPYNGSSAGSVQTTVNFSLNPFTLNDTVTSCRLLTPSAVNVSLAAISAGQLPSSGDEVVAGTTSLKLQCDAGVTVWATLTDATTPSNRSDILTLTGASTATGVGLRIYKNTDSTPLKFGPDSPVKGNENQWQLSTGTETSPSVRLYVKYVNTGEGINPGTVNGISTFTFSYQ , glycan array binding signal (z-score) read as -0.315

Notebook: BC2LB (Burholderia cenocepacia), B4EH85_BURCJ (protein) MGSSHHHHHHSSGENLYFQGHMSQPFTHDDLYALLQLAGNDATAVQANGDQAVLDRMRQFMTAQLVEKLPQYDVFVDIATIPYSFDVGSWQNKVKTDAAGEVVACTVTWAGAPGVLPGAAAKFGVGAVVNYFSKATPH , glycan array binding signal (z-score) read as 1.63
